Reference for the values: patent US9409952B2

Each item that follows carries a reported microsomal CLint at 1 uM.
Assay: Metabolic stability in human hepatic microsome
Format: in vitro ADME
Conditions: microsomes, pH 7.4; human hepatic microsome, NADPH(+); read-out: CL NADPH(+)
Starred links: 1 amine or outer side, 2 acyl side, 3 side chain; linkers in the order of their positions; H or OH if unused. Positions of bridges follow the written chain, without caps; N, C: chain ends. Non-standard residues stand in square brackets, D forms with d. Residues, ends and D or L forms follow the SMILES beside them. *: point of attachment. Phe(3-(CH2)4CO) = O=C([C@H](Cc1cccc(CCCCC(=O)[*:3])c1)N[*:1])[*:2]; NMeF = CN[C@@H](Cc1ccccc1)C(=O)O; NMeL = CN[C@@H](CC(C)C)C(=O)O; NMeV = CN[C@H](C(=O)O)C(C)C; NMeA = CN[C@@H](C)C(=O)O; Piperidide = C1CCN(*)CC1; Sar = CNCC(=O)O
Quick note: give the figure in µL/min/mg, leave out the unit.

compound	units_symbol	microsomal CLint at 1 uM
CC[C@H](C)[C@@H]1NC(=O)[C@H](Cc2ccccc2)N(C)C(=O)[C@H](Cc2ccccc2)NC(=O)[C@H](CC(C)C)N(C)C(=O)[C@H](C(C)C)NC(=O)[C@H](CC(C)C)NC(=O)[C@H](C)N(C)C(=O)CNC(=O)CCCCc2cccc(c2)C[C@@H](C(=O)N2CCCCC2)NC(=O)[C@H]([C@@H](C)O)NC(=O)[C@H](CC(C)C)NC(=O)[C@H](C)N(C)C1=O [DP-893] (G[NMeA]LV[NMeL]F[NMeF]I[NMeA]LT[Phe(3-(CH2)4CO)]-Piperidide; lactam N-12)	µL/min/mg	86

So, CC[C@H](C)[C@@H]1NC(=O)[C@H](C)N(C)C(=O)[C@H]([C@@H](C)O)NC(=O)[C@H](C)N(C)C(=O)[C@H](C(C)C)N(C)C(=O)[C@H](Cc2ccccc2)NC(=O)CN(C)C(=O)C[C@@H](C(=O)N(C)[C@@H](Cc2ccccc2)C(=O)N[C@@H](C)C(=O)N2CCCCC2)NC(=O)[C@H](C)N(C)C(=O)[C@H](CC(C)C)N(C)C1=O [DP-195] ([Sar]F[NMeV][NMeA]T[NMeA]I[NMeL][NMeA]D[NMeF]A-Piperidide; lactam N-10) ? Its microsomal CLint at 1 uM was 52

---

Each item that follows carries a reported microsomal CLint at 1 uM.
Test: Metabolic stability in human hepatic microsome
Type: in vitro ADME
Conditions: human, human hepatic microsomes, pH 7.4, human hepatic microsome, NADPH(+); read-out: CL NADPH(+)
Positions of bridges follow the written chain, without caps; N, C: chain ends. Non-standard residues stand in square brackets, D forms with d. Residues, ends and D or L forms follow the SMILES beside them. *: point of attachment. NMeF = CN[C@@H](Cc1ccccc1)C(=O)O; NMeI = CC[C@H](C)[C@H](NC)C(=O)O; NMeL = CN[C@@H](CC(C)C)C(=O)O; NMeV = CN[C@H](C(=O)O)C(C)C; NMeA = CN[C@@H](C)C(=O)O; Piperidide = C1CCN(*)CC1; dNMeA = CN[C@H](C)C(=O)O; Sar = CNCC(=O)O; tBu = CC(C)(C)*
Quick note: give the figure in µL/min/mg, leave out the unit.

compound	value_observed
CC[C@H](C)[C@H]1C(=O)N(C)[C@@H](C)C(=O)N[C@@H](COC(C)(C)C)C(=O)N(C)[C@@H](CC(C)C)C(=O)N(C)[C@@H](CC(C)C)C(=O)N[C@H](C(=O)N2CCCCC2)CC(=O)N(C)[C@H](C)C(=O)N(C)[C@@H](Cc2ccccc2)C(=O)N[C@@H](C)C(=O)N(C)[C@@H](CC(C)C)C(=O)N[C@@H]([C@@H](C)O)C(=O)N[C@@H](Cc2ccccc2)C(=O)N1C [DP-63] ([dNMeA][NMeF]A[NMeL]TF[NMeI][NMeA]S(tBu)[NMeL][NMeL]D-Piperidide; lactam N-12)	58

In the following, a different compound is considered.
So, CC[C@H](C)[C@H]1C(=O)N[C@@H](C)C(=O)N[C@H](C(=O)N2CCCCC2)CC(=O)N(C)[C@@H](C)C(=O)N[C@@H]([C@@H](C)O)C(=O)N(C)[C@@H](Cc2ccccc2)C(=O)N[C@@H](CC(C)C)C(=O)N2CCC[C@H]2C(=O)N(C)[C@@H](C(C)C)C(=O)N[C@@H](Cc2ccccc2)C(=O)N(C)CC(=O)N(C)[C@@H](CC(C)C)C(=O)N1C [DP-58] ([NMeA]T[NMeF]LP[NMeV]F[Sar][NMeL][NMeI]AD-Piperidide; lactam N-12) ? Its microsomal CLint at 1 uM was 27

---

Assay: PAMPA (parallel artificial membrane permeability assay)
Type: in vitro ADME
Conditions: PAMPA; membrane permeation rate (Pe); 50 mM MOPSO buffer pH 6.5 with 5.0% glycocholic acid, 37° C., 18 hours; read-out: iPAMPA Pe
Positions of bridges follow the written chain, without caps; N, C: chain ends. Non-standard residues stand in square brackets, D forms with d. Residues, ends and D or L forms follow the SMILES beside them. *: point of attachment. NMeF = CN[C@@H](Cc1ccccc1)C(=O)O; NMeI = CC[C@H](C)[C@H](NC)C(=O)O; NMeL = CN[C@@H](CC(C)C)C(=O)O; NMeA = CN[C@@H](C)C(=O)O; Piperidide = C1CCN(*)CC1; Sar = CNCC(=O)O
readout: Papp at 18 hours, 50 µM (×10⁻⁶ cm/s)
Quick note: give the figure in ×10⁻⁶ cm/s, leave out the unit.

compound	units_symbol	Papp at 18 hours, 50 µM
CC[C@H](C)[C@H](NC(=O)[C@@H]1CCCN1C(=O)[C@@H]1CC(=O)N[C@@H](C)C(=O)N[C@@H](CC(C)C)C(=O)N(C)[C@@H]([C@@H](C)CC)C(=O)N[C@@H](C(C)C)C(=O)N(C)[C@@H](Cc2ccccc2)C(=O)N[C@@H](CC(C)C)C(=O)N(C)[C@@H](Cc2ccccc2)C(=O)N1)C(=O)N1CCCCC1 [DP-965] (AL[NMeI]V[NMeF]L[NMeF]DPI-Piperidide; lactam N-8)	×10⁻⁶ cm/s	16

In the following, a different compound is considered.
So, CNC(=O)CC[C@@H]1NC(=O)[C@H](CC(C)C)N(C)C(=O)[C@H](C)N(C)C(=O)[C@@H](C(C)C)NC(=O)C[C@@H](C(=O)N2CCCCC2)NC(=O)[C@H]([C@@H](C)O)NC(=O)[C@H](C)N(C)C(=O)CN(C)C(=O)[C@H](CC(C)C)N(C)C(=O)[C@H](Cc2ccccc2)NC(=O)[C@H](Cc2ccccc2)N(C)C1=O [DP-627] ([dV][NMeA][NMeL]E(NHMe)[NMeF]F[NMeL][Sar][NMeA]TD-Piperidide; lactam N-11) ? Its Papp at 18 hours, 50 µM was 2.4

---

Experiment: PAMPA (parallel artificial membrane permeability assay)
Format: in vitro ADME
Details: PAMPA; membrane permeation rate (Pe); 50 mM MOPSO buffer pH 6.5 with 5.0% glycocholic acid, 37° C., 18 hours; read-out: iPAMPA Pe
Positions of bridges follow the written chain, without caps; N, C: chain ends. Non-standard residues stand in square brackets, D forms with d. Residues, ends and D or L forms follow the SMILES beside them. *: point of attachment. NMeF = CN[C@@H](Cc1ccccc1)C(=O)O; NMeL = CN[C@@H](CC(C)C)C(=O)O; NMeA = CN[C@@H](C)C(=O)O; Piperidide = C1CCN(*)CC1
Each item that follows carries a reported Papp at 18 hours, 50 µM.
Quick note: give the figure in ×10⁻⁶ cm/s, leave out the unit.

compound	Papp at 18 hours, 50 µM (×10⁻⁶ cm/s)
CC[C@H](C)[C@@H]1NC(=O)[C@H](C)N(C)C(=O)[C@H](CC(C)C)N(C)C(=O)[C@@H](C(C)C)NC(=O)C[C@@H](C(=O)N(C)[C@@H](Cc2ccccc2)C(=O)N[C@@H](C)C(=O)N2CCCCC2)NC(=O)[C@H]([C@@H](C)O)NC(=O)[C@H](CC(C)C)N(C)C(=O)[C@H](Cc2ccccc2)N(C)C(=O)[C@H](CC(C)C)N(C)C(=O)[C@H](Cc2ccccc2)N(C)C1=O [DP-190] ([dV][NMeL][NMeA]I[NMeF][NMeL][NMeF][NMeL]TD[NMeF]A-Piperidide; lactam N-10)	0.6

So, CC(C)C[C@H]1C(=O)N[C@H](C(=O)N2CCCCC2)CC(=O)N(C)[C@@H](C)C(=O)N(C)[C@@H](Cc2ccccc2)C(=O)N(C)[C@@H](C)C(=O)N[C@@H]([C@@H](C)O)C(=O)N(C)[C@@H](C)C(=O)N[C@@H](Cc2ccccc2)C(=O)N(C)[C@@H](C)C(=O)N[C@@H](C)C(=O)N(C)[C@@H](C)C(=O)N1C [DP-422] ([NMeA][NMeF][NMeA]T[NMeA]F[NMeA]A[NMeA][NMeL]D-Piperidide; lactam N-11) ? Its Papp at 18 hours, 50 µM was 3.8
